Below: a set of entries, each annotated with reported GI50.
Test system: SK-MEL-5 melanoma
run-description: NCI tumour cell line growth inhibition, 48 h

Consider the reported GI50 for these compounds:
1. O=C1C(Nc2ccccn2)=C(I)C(=O)c2ncccc21
1110 nM
2. O=C1Nc2ccccc2SC1C1SC(=S)N(Cc2ccccc2)C1=O (stereo not given)
13700 nM
3. O=[N+]([O-])c1ccc2nc(N/N=C/c3ccc(O)cc3)sc2c1
2880 nM
4. O=C(N/N=C/c1cc2ccccc2c2ccccc12)c1cc(O)c(O)c(O)c1
2900 nM

Consider the additional compound presented here.
## Task GI50 lookup needed for CCN(C)S(=O)(=O)Nc1cccc(Nc2ncnc3cc(NC(=O)CCl)ccc23)c1Cl , thanks.
## Result 3430 nM
